Taken from paper PMC10397247.

Biological target: T1, 4H1388-AA
T1 chain: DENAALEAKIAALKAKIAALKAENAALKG
Assay: two-hybrid library CCmax;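 further: natural log of median RNA to DNA barcode read ratio; higher means stronger binding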
Conditions: mean of both orientations
measurementLabel: interaction score

I. DENAALEAKIAALKAEIAALEAKNAALEG [4H1351-AA]
II. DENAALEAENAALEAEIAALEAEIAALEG [4H1153-AA]
Please compare: I and II . Report which one has the smaller interaction score value. Reply briefly: the label of your chosen item.
I

a. DEIAALEAEIAALKAKNAALKAENAALEG [4H123-AA]
b. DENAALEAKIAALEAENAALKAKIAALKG [4H1310-AA]
Lab note: record which item had the higher interaction score, a or b . Reply briefly: the label of your chosen item.
a
(a: -0.318, b: -1.2)
